- EXPERIMENTAL DETAILS: ATG_MRE_CIS: Attagene CIS-FACTORIAL HepG2 Assay for human Metal Responsive Element (MRE) (AID 2282954)
- SETUP CONDITIONS: HepG2 MRE cis-reporter transcription, Attagene multiplex; actives raise or lower the signal
- Experimental: ATG_CIS is a cell-based, multiplexed-readout assay that uses HepG2, a human liver cell line, with measurements taken at 24 hours after chemical dosing in a 24-well plate.ATG_MRE_CIS is one of 52 assay component(s) measured or calculated from the ATG_CIS assay. […] This assay endpoint, ATG_MRE_CIS, was analyzed with bidirectional fitting relative to DMSO as the negative control and baseline of activity. […]
Active and inactive are the calls of the source. How the source made its calls: active means hit-call score of the fitted dose curve at least 0.9, where 1 is the maximum; inactive means score below 0.9.
Can you answer with just one of these options? yes (1) (active), no (0) (inactive)

The following compounds have reported results that may help.
INSERT INTO assay_data (compound, label_class) VALUES
  ('CN(C)N=Nc1ccccc1', 'no (0)'),
  ('CC1=CCCC(C)(C)C12CCC(C)O2 (centres undefined)', 'no (0)'),
  ('CN(C)Cc1cc(C(C)(C)C)c(O)c(C(C)(C)C)c1', 'no (0)'),
  ('O=C(C(=O)c1ccccc1)c1ccccc1', 'no (0)'),
  ('CC1=NN(c2cc(Cl)c(S(=O)(=O)O)cc2Cl)C(=O)C1N=Nc1ccc(S(=O)(=O)O)cc1 (centres undefined)', 'no (0)'),
  ('COc1ccc2ccccc2c1', 'no (0)'),
  ('O=C1CCCCCCCCCCCCCC1', 'no (0)'),
  ('NC(=O)c1ccc([N+](=O)[O-])cc1Cl', 'no (0)');

## Input Outcome logged for C1=CCC=C1 in this assay:
## Output no (0)

## Input Would you mind doing O=S(=O)(O)c1cccc2ccccc12 as well?
## Output no (0)

## Input And CC(C)(C)NC(=O)[C@@H]1CN(Cc2cccnc2)CCN1C[C@@H](O)C[C@@H](Cc1ccccc1)C(=O)N[C@H]1c2ccccc2C[C@H]1O ?
## Output no (0)

## Input Okay, and COCCCN ?
## Output no (0)

## Input Consider next the compound CCCc1c(OCCCCc2nn[nH]n2)ccc(C(C)=O)c1O in the same way.
## Output yes (1)
